# Tested on: 596521-263-R-J1-PDC complex spheroid growth;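 also: spheroids exposed to compounds for 7 days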
# assay overview: Anticancer human tumor 596521-263-R-J1-PDC patient-derived soft tissue sarcoma cell line growth inhibition [Asc]
# condition details: second compound 0.316 µM; first compound 0.316 µM; stronger effect = lower value
observable: viability, T/C (%)
Write the answer as a number in %, unit excluded.

The compound listed as O=C(c1cc(Cc2n[nH]c(=O)c3ccccc23)ccc1F)N1CCN(C(=O)C2CC2)CC1 + Cc1c(S(C)(=O)=O)c(-c2cc(F)cc(N3CCN(c4ccc(NS(=O)(=O)c5ccc(NC(CCN6CCC(C(=O)OCCCP(=O)(O)O)CC6)CSc6ccccc6)c(S(=O)(=O)C(F)(F)F)c5)cc4)CC3)c2)c(-c2ccc(Cl)cc2)n1C(C)C shows viability, T/C equal to 79.5
